Target Or System: T1, GST-thCENP-K^FL (full-length T. terrestris CENP-K with N-terminal GST)
T1 chain: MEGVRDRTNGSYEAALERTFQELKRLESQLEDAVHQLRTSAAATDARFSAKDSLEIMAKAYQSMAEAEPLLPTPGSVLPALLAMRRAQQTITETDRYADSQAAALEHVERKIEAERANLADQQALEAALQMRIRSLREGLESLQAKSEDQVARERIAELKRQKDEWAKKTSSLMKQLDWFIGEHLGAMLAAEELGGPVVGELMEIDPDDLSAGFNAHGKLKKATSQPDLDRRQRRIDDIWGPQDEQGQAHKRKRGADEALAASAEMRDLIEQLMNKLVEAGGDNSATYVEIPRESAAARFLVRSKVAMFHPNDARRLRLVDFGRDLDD
Procedure Text: GST pull-down
Conditions: chain shown with the change;; parent: est. 1.0; read off a plot
Reported Endpoint: ratio to parent
Simply state the number, no unit and no words.

Before answering, review these 5 worked examples.
binder="full-length T. terrestris CENP-H (thCENP-H) I205A; I211A (protein) MAATASTATPTPLPHFTEREASVLALYDRLRQLQLELALLTSQRSHGVIETSASRRAENDLAVDEARLLEARATLDLRDSVVENVVTLQPILNAVHHATHASPLERDLLPYTEQRDATATKVASLCADLDSAWGRLAELETESLRATQRNMELASEVLRLAAGTNDKTPSQLEGGRLEMELAGHEAEMKSNRRRWRIMKGAASAAVAGSGADWVRDERLRDLVLDLPD" reported_endpoint="ratio to parent" result_number=0.88
binder="full-length T. terrestris CENP-H (thCENP-H) W213A (protein) MAATASTATPTPLPHFTEREASVLALYDRLRQLQLELALLTSQRSHGVIETSASRRAENDLAVDEARLLEARATLDLRDSVVENVVTLQPILNAVHHATHASPLERDLLPYTEQRDATATKVASLCADLDSAWGRLAELETESLRATQRNMELASEVLRLAAGTNDKTPSQLEGGRLEMELAGHEAEMKSNRRRWRIMKGAASAIVAGSGIDAVRDERLRDLVLDLPD" reported_endpoint="ratio to parent" result_number=0.97
binder="full-length T. terrestris CENP-H (thCENP-H) R220E (protein) MAATASTATPTPLPHFTEREASVLALYDRLRQLQLELALLTSQRSHGVIETSASRRAENDLAVDEARLLEARATLDLRDSVVENVVTLQPILNAVHHATHASPLERDLLPYTEQRDATATKVASLCADLDSAWGRLAELETESLRATQRNMELASEVLRLAAGTNDKTPSQLEGGRLEMELAGHEAEMKSNRRRWRIMKGAASAIVAGSGIDWVRDERLEDLVLDLPD" reported_endpoint="ratio to parent" result_number=0.97
binder="full-length T. terrestris CENP-H (thCENP-H) I205A; L219A (protein) MAATASTATPTPLPHFTEREASVLALYDRLRQLQLELALLTSQRSHGVIETSASRRAENDLAVDEARLLEARATLDLRDSVVENVVTLQPILNAVHHATHASPLERDLLPYTEQRDATATKVASLCADLDSAWGRLAELETESLRATQRNMELASEVLRLAAGTNDKTPSQLEGGRLEMELAGHEAEMKSNRRRWRIMKGAASAAVAGSGIDWVRDERARDLVLDLPD" reported_endpoint="ratio to parent" result_number=0.9
binder="full-length T. terrestris CENP-H (thCENP-H) I205A (protein) MAATASTATPTPLPHFTEREASVLALYDRLRQLQLELALLTSQRSHGVIETSASRRAENDLAVDEARLLEARATLDLRDSVVENVVTLQPILNAVHHATHASPLERDLLPYTEQRDATATKVASLCADLDSAWGRLAELETESLRATQRNMELASEVLRLAAGTNDKTPSQLEGGRLEMELAGHEAEMKSNRRRWRIMKGAASAAVAGSGIDWVRDERLRDLVLDLPD" reported_endpoint="ratio to parent" result_number=0.94

Look up ratio to parent: full-length T. terrestris CENP-H (thCENP-H) I211A (protein) MAATASTATPTPLPHFTEREASVLALYDRLRQLQLELALLTSQRSHGVIETSASRRAENDLAVDEARLLEARATLDLRDSVVENVVTLQPILNAVHHATHASPLERDLLPYTEQRDATATKVASLCADLDSAWGRLAELETESLRATQRNMELASEVLRLAAGTNDKTPSQLEGGRLEMELAGHEAEMKSNRRRWRIMKGAASAIVAGSGADWVRDERLRDLVLDLPD
0.95

// same read-out, input: full-length T. terrestris CENP-H (thCENP-H) L219A (protein) MAATASTATPTPLPHFTEREASVLALYDRLRQLQLELALLTSQRSHGVIETSASRRAENDLAVDEARLLEARATLDLRDSVVENVVTLQPILNAVHHATHASPLERDLLPYTEQRDATATKVASLCADLDSAWGRLAELETESLRATQRNMELASEVLRLAAGTNDKTPSQLEGGRLEMELAGHEAEMKSNRRRWRIMKGAASAIVAGSGIDWVRDERARDLVLDLPD
0.89
